Item-by-item account of AUC
- ASSAY_REMARKS: AUC in cynomolgus monkey at 2 mg/kg, po suspension at pH 6.5
- Format: ADME, organism-based, Macaca fascicularis
- CONDITION_SET: in vivo
READOUT: AUC (nM·h)

compound_structure_string=N#Cc1cc2c(cn1)[nH]c1ncc(-c3ccc(CN4CCC5(CC4)COC5)cc3)cc12 value=910
compound_structure_string=N#Cc1cc2c(cn1)[nH]c1ncc(-c3ccc(CN4CCCCC4)cc3)cc12 value=869

----------
- ASSAY_REMARKS: Clearance in CD1 mouse at 1 mg/kg, iv solution at pH 4.5
- Assay type: ADME, organism-based
- CONDITION_SET: in vivo
READOUT: clearance (mL/min/kg)

compound_structure_string=N#Cc1cc2c(cn1)[nH]c1ncc(-c3ccc(CN4CCCCC4)cc3)cc12 value=55.8

----------
- ASSAY_REMARKS: Oral bioavailability in cynomolgus monkey at 2 mg/kg suspension at pH 6.5
- Assay type: ADME, organism-based, Macaca fascicularis
- CONDITION_SET: in vivo
READOUT: bioavailability (%)

compound_structure_string=N#Cc1cc2c(cn1)[nH]c1ncc(-c3ccc(CN4CCCCC4)cc3)cc12 value=43.8
compound_structure_string=N#Cc1cc2c(cn1)[nH]c1ncc(-c3ccc(CN4CCC5(CC4)COC5)cc3)cc12 value=34

----------
- ASSAY_REMARKS: Plasma protein binding in cynomolgus monkey
- Type: ADME, cell-free, Macaca fascicularis
- CONDITION_SET: read-out: PPB (converted)
READOUT: fraction unbound

compound_structure_string=N#Cc1cc2c(cn1)[nH]c1ncc(-c3ccc(CN4CCC5(CC4)COC5)cc3)cc12 readout="fraction unbound" value=0.049
compound_structure_string=N#Cc1cc2c(cn1)[nH]c1ncc(-c3ccc(CN4CCCCC4)cc3)cc12 readout="fraction unbound" value=0.117

----------
- MEASUREMENT_TARGET: Acetylcholinesterase (Homo sapiens, UniProt P22303)
- Sequence (P22303 whole entry): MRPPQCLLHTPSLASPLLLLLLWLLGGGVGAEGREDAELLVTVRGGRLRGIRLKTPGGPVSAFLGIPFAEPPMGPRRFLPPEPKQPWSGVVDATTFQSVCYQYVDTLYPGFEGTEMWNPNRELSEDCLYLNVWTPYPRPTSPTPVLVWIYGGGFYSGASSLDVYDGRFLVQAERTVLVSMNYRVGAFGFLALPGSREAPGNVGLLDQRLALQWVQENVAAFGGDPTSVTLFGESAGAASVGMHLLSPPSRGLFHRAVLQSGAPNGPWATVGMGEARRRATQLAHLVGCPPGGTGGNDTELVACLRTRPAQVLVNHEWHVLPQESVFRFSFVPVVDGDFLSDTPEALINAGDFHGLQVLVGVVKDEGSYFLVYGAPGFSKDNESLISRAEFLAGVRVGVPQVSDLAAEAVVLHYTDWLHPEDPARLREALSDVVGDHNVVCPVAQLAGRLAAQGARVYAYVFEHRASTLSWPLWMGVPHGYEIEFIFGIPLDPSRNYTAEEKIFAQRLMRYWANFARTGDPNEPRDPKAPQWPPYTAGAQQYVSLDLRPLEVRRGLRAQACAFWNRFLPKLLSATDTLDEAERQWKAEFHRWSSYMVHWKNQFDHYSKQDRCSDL
pIC50: −log10 of the molar value.
Kind request: treat 6 as inclusive, so pIC50 at 6 or higher is 1 (yes), anything lower is 0 (no).

compound_structure_string=NC(=O)c1cc2c(cn1)[nH]c1ncc(-c3ccc(CN4CCCCC4)cc3)cc12 assigned_category="1 (yes)"
compound_structure_string=N#Cc1cc2c(cn1)[nH]c1ncc(-c3ccc(CN4CCC(C#N)CC4)cc3)cc12 assigned_category="0 (no)"
compound_structure_string=CCN1CCc2cc(-c3cnc4[nH]c5cnc(C#N)cc5c4c3)ccc2C1 assigned_category="1 (yes)"
compound_structure_string=N#Cc1cc2c(cn1)[nH]c1ncc(-c3ccc(CN4CCCCC4)cc3)cc12 assigned_category="1 (yes)"
compound_structure_string=c1ncc(-c2cc3c(cn2)[nH]c2ncc(-c4ccc(CN5CCCCC5)cc4)cc23)s1 assigned_category="1 (yes)"

----------
Item-by-item account of Vd
- ASSAY_REMARKS: Volume of distribution at steady state in Sprague-Dawley rat at 1 mg/kg, iv solution at pH 4.5
- Assay type: ADME, organism-based
- CONDITION_SET: in vivo, read-out: Vdss
READOUT: Vd

compound_structure_string=N#Cc1cc2c(cn1)[nH]c1ncc(-c3ccc(CN4CCC5(CC4)COC5)cc3)cc12 value="7.55 L/kg"
compound_structure_string=N#Cc1cc2c(cn1)[nH]c1ncc(-c3ccc(CN4CCCCC4)cc3)cc12 value="6.35 L/kg"

From: ChEMBL document CHEMBL3580561
